This collection of values is drawn from the supplement of paper PMC12024424.

- Test system: Staphylococcus aureus Sa2 (MRSA, cystic fibrosis isolate)
- Protocol description: growth reduction vs untreated control (viable cell count); higher = stronger antibacterial activity; extreme values may be limits of the assay
- Details: 0.1 mM; 24 h
Where a name gives a salt, the structure may show the parent alone.
Readout label: growth reduction (%)
Kindly answer with a numeric value in %, unit omitted.

Inquiry: Entry under review: CC1(C)CC[C@]2(C(=O)O)CC[C@]3(C)[C@H](C(=O)C=C4[C@@]5(C)C=C(C#N)C(=O)C(C)(C)[C@@H]5CC[C@]43C)[C@@H]2C1 [Bardoxolone] . Reported growth reduction?
Reply text: 100

Inquiry: Entry under review: Nc1ccn([C@@H]2O[C@H](CO)[C@@H](O)C2(F)F)c(=O)n1 [Gemcitabine (hydrochloride)] . Reported growth reduction?
Reply text: 100

Inquiry: Entry under review: Cc1cc(Nc2ncnc3ccc(NC4=NC(C)(C)CO4)cc23)ccc1Oc1ccn2ncnc2c1 [Tucatinib] . Reported growth reduction?
Reply text: 92

Inquiry: Entry under review: CC(C)(C)c1ccc(C(O)CCCN2CCC(C(O)(c3ccccc3)c3ccccc3)CC2)cc1 (stereo unspecified) [Terfenadine] . Reported growth reduction?
Reply text: 100

Inquiry: Entry under review: CC(C)OC(=O)CCC/C=C\C[C@@H]1[C@@H](/C=C/[C@@H](O)COc2cccc(C(F)(F)F)c2)[C@H](O)C[C@@H]1O [Travoprost] . Reported growth reduction?
Reply text: 100

Inquiry: Entry under review: CC(/C=C/C=C(\C)C(=O)O)=C\C=C\C=C(C)\C=C\C=C(/C)C(=O)O [Transcrocetin meglumine salt] . Reported growth reduction?
Reply text: 92

Inquiry: Entry under review: `Cc1noc(-c2ccc(-c3ccc(C4(C(=O)O)CC4)cc3)cc2)c1NC(=O)O[C@H](C)c1ccccc1` . Reported growth reduction?
Reply text: 100

Inquiry: Entry under review: Fc1ccc(C(c2ccc(F)cc2)N2CCN(C/C=C/c3ccccc3)CC2)cc1 [Flunarizine (dihydrochloride)] . Reported growth reduction?
Reply text: 98

Inquiry: Entry under review: O/N=c1\cc(-c2cc3sccc3cn2)oc2ccc(CCCN3CCOCC3)cc12 [Foliglurax (monohydrochloride)] . Reported growth reduction?
Reply text: 100

Inquiry: Entry under review: Cc1ccc(Sc2ccccc2N2CCNCC2)c(C)c1 [Vortioxetine (hydrobromide)] . Reported growth reduction?
Reply text: 100

Inquiry: Entry under review: O=C1NCCN1CCN1CCC(c2cn(-c3ccc(F)cc3)c3ccc(Cl)cc23)CC1 [Sertindole] . Reported growth reduction?
Reply text: 97

Inquiry: Entry under review: O=C(O)C1(c2ccc(-c3ccc(Cl)c(Cl)c3)c(F)c2)CC1 [Itanapraced] . Reported growth reduction?
Reply text: 100

Inquiry: Entry under review: CCCCCCNC(=O)n1cc(F)c(=O)[nH]c1=O [Carmofur] . Reported growth reduction?
Reply text: 100

Inquiry: Entry under review: O=C(O)Cc1cc(I)c(Oc2ccc(O)c(I)c2)c(I)c1 [Tiratricol] . Reported growth reduction?
Reply text: 100

Inquiry: Entry under review: CC(=O)Oc1cccc2c1C(=O)c1c(OC(C)=O)cc(C(=O)O)cc1C2=O [Diacerein] . Reported growth reduction?
Reply text: 100

Inquiry: Entry under review: C=C[C@@H]1C[C@]1(NC(=O)[C@@H]1C[C@@H]2CN1C(=O)[C@H](C(C)(C)C)NC(=O)O[C@@H]1C[C@H]1CCCCCc1nc3ccc(OC)cc3nc1O2)C(=O)NS(=O)(=O)C1CC1 [Grazoprevir] . Reported growth reduction?
Reply text: 100

Inquiry: Entry under review: COc1cc2/c(=N/c3ccc(Br)cc3F)nc[nH]c2cc1OCC1CCN(C)CC1 [Vandetanib] . Reported growth reduction?
Reply text: 100

Inquiry: Entry under review: CCc1oc2ccccc2c1C(=O)c1cc(Br)c(O)c(Br)c1 [Benzbromarone] . Reported growth reduction?
Reply text: 100

Inquiry: Entry under review: CC(=O)Oc1ccccc1C(=O)Nc1ncc([N+](=O)[O-])s1 [Nitazoxanide] . Reported growth reduction?
Reply text: 100

Inquiry: Entry under review: CCc1cc(-c2noc(-c3cc(OC)nc(C4CCCC4)c3)n2)cc(C)c1OC[C@@H](O)CO [Cenerimod] . Reported growth reduction?
Reply text: 100

Inquiry: Entry under review: Cn1cnc([N+](=O)[O-])c1C[N+](C)(C)C/C=C/C(=O)Nc1cc2c(Nc3ccc(Cl)c(Br)c3)ncnc2cn1 [Tarloxotinib (bromide)] . Reported growth reduction?
Reply text: 100

Inquiry: Entry under review: COc1cc2c(cc1Cc1cccc(Cl)c1F)c(=O)c(C(=O)O)cn2[C@H](CO)C(C)C [Elvitegravir] . Reported growth reduction?
Reply text: 100

Inquiry: Entry under review: C=C[C@@H]1C[C@]1(NC(=O)[C@@H]1C[C@@H](Oc2ncc(OC)c3ccc(Cl)cc23)CN1C(=O)[C@@H](NC(=O)OC(C)(C)C)C(C)(C)C)C(=O)NS(=O)(=O)C1CC1 [Asunaprevir] . Reported growth reduction?
Reply text: 100

Inquiry: Entry under review: C=CC(=O)N1CC[C@@H](Oc2nc(Nc3ccc(N4CCC(N5CCN(C)CC5)CC4)cc3)c(C(N)=O)nc2CC)C1 [Naquotinib (mesylate)] . Reported growth reduction?
Reply text: 100

Inquiry: Entry under review: `Cc1ccc(C(=O)Nc2ccc(CN3CCN(C)CC3)c(C(F)(F)F)c2)cc1C#Cc1cnc2[nH]ncc2c1` . Reported growth reduction?
Reply text: 100

Inquiry: Entry under review: `CCc1nc(-c2cccc(C)c2)c(-c2ccnc(NC(=O)c3ccccc3)c2)s1` . Reported growth reduction?
Reply text: 100

Inquiry: Entry under review: Clc1ccccc1C(c1ccccc1)(c1ccccc1)n1ccnc1 [Clotrimazole] . Reported growth reduction?
Reply text: 100

Inquiry: Entry under review: Cc1c(Cl)cccc1Nc1ccccc1C(=O)O [Tolfenamic Acid] . Reported growth reduction?
Reply text: 99

Inquiry: Entry under review: `O=C(O)CNC(=O)c1nc(Cl)c2ccccc2c1O` . Reported growth reduction?
Reply text: 100

Inquiry: Entry under review: C=CC(=O)Nc1cc(Nc2nccc(-c3cn(C)c4ccccc34)n2)c(OC)cc1N(C)CCN(C)C [Osimertinib mesylate] . Reported growth reduction?
Reply text: 100

Inquiry: Entry under review: CCOc1cc2ncc(C#N)c(Nc3ccc(F)c(Cl)c3)c2cc1NC(=O)/C=C/CN(C)C [Pelitinib] . Reported growth reduction?
Reply text: 97
